Assayed target: T1, Soluble IGF-1R (R&D Systems, Cat. # 391-GR/CF); recombinant human IGF-1R (human, UniProt P08069 31-935)
T1 construct: extracellular domain; Eu3+-labelled in the TR-FRET assays; also called sIGF-1R; rhIGF-1R
Assay protocol: phage ELISA vs milk
Positions of bridges follow the written chain, without caps; N, C: chain ends. No end group written: not given here.

Binder	Ratio over Background
LRRQAPVEENFYDWFVRQVSGDRVGG [H2CA-3-D7-IGFR]	3 fold
RGKTAAVIVGRPADPFYHKLSELLQGG [26Hα-3-E8-IR]	5.3 fold
SSYGCDGFYLMLFSLGLVASQELEC (disulfide 5-25 (inferred)) [20C-3-A1-IGFR]	20.8 fold
MMVVDGFYDALHQLVVAQSLG [20E2A-3-D10-IGFR]	6.9 fold
NYRRQVFNGNFYDWFDRQVFSLVTPG [142CA-3-D8-IGFR]	7.2 fold
RAGSSDFHEDFYEWFVRQVSLSLKGK [H2CA-2-B9-IGFR]	7 fold
TLRSPTFYDWLEMVLTHGQGG [20E22-1-A8-IGFR]	4.4 fold

Source listed as patent US20030236190A1.
